Give inhibition of aggregation for every item shown.
# measurement protocol: reduction of polyQ htt aggregates in cells – imaging, exon1htt(103Q)mCFP cells, high-content imaging, primary screen (AID 483);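 note: compound exposure lasted 3 days before fixation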
# stated conditions: exon1htt(103Q)mCFP cell line, aggregate imaging, at 2 µM; hits give high values
Numbers only, in %.

Use these answered entries as a reference point.
compound	reading unit	inhibition of aggregation
O=C(NCCN1C(=O)C2C3C=CC(C3)C2C1=O)N1CCCCC1 (stereo unspecified)	%	0.9
CC1=C(C(=O)NCc2ccccc2)C(c2ccccc2OCC(N)=O)NC(=O)N1 (stereo unspecified)	%	14.3
COCCn1c(C)cc(C(=O)COC(=O)c2n[nH]c3ccccc23)c1C	%	2.3
COc1ccc(-n2c(Cc3cccn3C)nnc2SCC(=O)Nc2cccc(C)c2C)cc1	%	4.2
Cc1ccc(NC(=O)CSc2nnc(-c3ccncc3)n2C)cc1C	%	18.5
COc1ccc(-c2nnc(SCC(=O)NC(C)c3ccccc3)o2)cc1 (stereo unspecified)	%	-59
O=C1CCn2nc(-c3ccc(Cl)cc3)cc2N1	%	-106
CCOC(=O)c1c(NC(=O)Cn2c(=O)oc3ccccc32)oc(C)c1C(C)=O	%	-18.8
CC(C)(C)Cc1nc(-c2ccccn2)no1	%	-13.5
CC(C)Cc1cc(C(=O)Nc2c(F)cc(F)cc2Br)no1	%	-5

Then there is this compound:
Consider the compound shown here: CCOc1ccc(C(=O)Nc2ccc(N3CCN(C)CC3)cc2)cc1Br What is its recorded inhibition of aggregation?
0.4
